- ASSAY SUMMARY: The drug is tested on Z-020 corresponding to rabbit gut metagenome with ENA study accession number: PRJEB37062 and ENA sample accession number: ERS12561819 for biotransformation under anaerobic condition. The drug concentrations were measured over 9 timepoints collected between 0 and 24 hours of incubation by liquid-chromatography-coupled mass spectrometry (LC–MS); also: call rule not given here
- TEST SETTINGS: 2 µM
MEASURED ATTRIBUTE: Bacterial Biotransformation

Field Bacterial Biotransformation (entry CCOc1cc(CC(=O)N[C@@H](CC(C)C)c2ccccc2N2CCCCC2)ccc1C(=O)O [REPAGLINIDE] ) reads Compound metabolized

Sure, the documented Bacterial Biotransformation for COc1ccnc(C[S+]([O-])c2nc3ccc(OC(F)F)cc3[nH]2)c1OC (stereo not drawn) [PANTOPRAZOLE] is Compound metabolized

Data origin: ChEMBL document CHEMBL5724914
